What fold difference in affinity against the original was measured for each of the following?
experimental target: T1, IL-1β (UniProt P01584 117-269)
T1 construct: Antigen of XPA23
test method notes: Biacore, Fab periplasmic extract
Kindly provide the numeric value in fold only, without the unit symbol.

Lab note: measured fold difference in affinity against the original of XPA23 heavy chain M57A (Fab, V domains shown, Fab, periplasmic extract; also called C5A M57A) VH: EVQLLESGGGLVQPGGSLRLSCAASGFTFSKYFMFWVRQAPGKGLEWVSVISPSGGATRYADSVKGRFTISRDNSKNTLYLQMNSLRAEDTAVYYCARVGYGGNSDYWGQGTLVTVSS VL: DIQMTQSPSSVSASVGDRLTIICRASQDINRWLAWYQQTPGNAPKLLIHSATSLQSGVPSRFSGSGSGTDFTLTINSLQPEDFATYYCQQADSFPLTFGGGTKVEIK was 0.03

Lab note: measured fold difference in affinity against the original of XPA23 heavy chain T58G (Fab, V domains shown, Fab, periplasmic extract; also called C5A T58G) VH: EVQLLESGGGLVQPGGSLRLSCAASGFTFSKYFMFWVRQAPGKGLEWVSVISPSGGMGRYADSVKGRFTISRDNSKNTLYLQMNSLRAEDTAVYYCARVGYGGNSDYWGQGTLVTVSS VL: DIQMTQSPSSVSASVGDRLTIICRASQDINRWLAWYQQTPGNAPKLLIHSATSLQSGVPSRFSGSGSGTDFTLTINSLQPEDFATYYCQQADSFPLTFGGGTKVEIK was 0.95

Lab note: measured fold difference in affinity against the original of XPA23 heavy chain G55L (Fab, V domains shown, Fab, periplasmic extract; also called C5A G55L) VH: EVQLLESGGGLVQPGGSLRLSCAASGFTFSKYFMFWVRQAPGKGLEWVSVISPSLGMTRYADSVKGRFTISRDNSKNTLYLQMNSLRAEDTAVYYCARVGYGGNSDYWGQGTLVTVSS VL: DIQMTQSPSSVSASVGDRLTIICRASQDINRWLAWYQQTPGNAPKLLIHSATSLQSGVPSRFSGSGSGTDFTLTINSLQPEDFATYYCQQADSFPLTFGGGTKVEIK was 0.08
